PROPERTY NAME: glass transition temperature (°C)
Answers are plain numbers, in °C.

Recorded glass transition temperature, per entry:
COMPOUND: *Oc1ccc(C(C)(C)c2ccc(OC(=O)c3ccc([Si](c4ccccc4)(c4ccccc4)c4ccc(C(*)=O)cc4)cc3)cc2)cc1 (repeat unit)
glass transition temperature, °C: 295.00

COMPOUND: *Oc1ccc(C(C)(C)c2ccc(Oc3cncc(*)n3)cc2)cc1 (repeat unit)
glass transition temperature, °C: 145.00

COMPOUND: *CCN(CCCCCCOc1ccc(/N=N/c2ccccc2)cc1)CCOC(=O)Nc1ccc(Cc2ccc(NC(=O)O*)cc2)cc1 (repeat unit)
glass transition temperature, °C: 44.00

--- query ---
get_value(item= *Oc1ccc(C(=O)O)c(C(=O)Nc2ccc(NC(=O)c3cc(*)ccc3C(=O)O)cc2)c1 (repeat unit) , readout=glass transition temperature) returns 166.30

Where these numbers come from: the PolyMetriX glass transition set
